B1: glmS ribozyme (parent)
chain: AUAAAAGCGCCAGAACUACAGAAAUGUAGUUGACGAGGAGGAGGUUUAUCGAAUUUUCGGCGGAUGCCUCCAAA

Variants of: B1
Assay: self-cleavage kobs at 2500 uM GlcN6P; higher = faster cleavage; RNA array
Details: with glucosamine-6-phosphate
Variants at the floor of the assay were thinned out.
Respond with YES for self-cleavage kobs at 2500 uM GlcN6P values of 0.0002 s⁻¹ and above, NO for values below.

[Q] Form field: self-cleavage kobs at 2500 uM GlcN6P at least 0.0002 s⁻¹? Entry: A14G G41A G62U
[A] NO

[Q] Form field: self-cleavage kobs at 2500 uM GlcN6P at least 0.0002 s⁻¹? Entry: A36U G38A A52U C67G
[A] NO

[Q] Form field: self-cleavage kobs at 2500 uM GlcN6P at least 0.0002 s⁻¹? Entry: C10G U46A
[A] NO

[Q] Form field: self-cleavage kobs at 2500 uM GlcN6P at least 0.0002 s⁻¹? Entry: U46C U69G
[A] NO

[Q] Form field: self-cleavage kobs at 2500 uM GlcN6P at least 0.0002 s⁻¹? Entry: A15C C70U
[A] YES

[Q] Form field: self-cleavage kobs at 2500 uM GlcN6P at least 0.0002 s⁻¹? Entry: A39U U49C C68G
[A] NO

[Q] Form field: self-cleavage kobs at 2500 uM GlcN6P at least 0.0002 s⁻¹? Entry: A15G G51C A52G G62A
[A] NO

[Q] Form field: self-cleavage kobs at 2500 uM GlcN6P at least 0.0002 s⁻¹? Entry: A15G U47C
[A] YES

[Q] Form field: self-cleavage kobs at 2500 uM GlcN6P at least 0.0002 s⁻¹? Entry: A12C C50G C70A
[A] YES

[Q] Form field: self-cleavage kobs at 2500 uM GlcN6P at least 0.0002 s⁻¹? Entry: C34A A42U U47A
[A] NO

[Q] Form field: self-cleavage kobs at 2500 uM GlcN6P at least 0.0002 s⁻¹? Entry: C11A U49A
[A] NO

[Q] Form field: self-cleavage kobs at 2500 uM GlcN6P at least 0.0002 s⁻¹? Entry: A12C A39G U47C
[A] YES

[Q] Form field: self-cleavage kobs at 2500 uM GlcN6P at least 0.0002 s⁻¹? Entry: G7U A12U G40U U55C C71A
[A] NO
